Data provenance: ChEMBL document CHEMBL3414459

Listed here are compounds together with their documented pEC50.
# ASSAY_OVERVIEW: Antioxidant activity assessed as DPPH free radical scavenging activity incubated for 30 mins
# Type: physicochemical
Friendly reminder that pEC50 comes from taking -log10 of the concentration in mol/L.

Completed entries (count: 4):
>>> measured("Oc1ccc(/C=N/NC(=S)Nc2ccccc2)cc1O")
5.03
>>> measured("Oc1cc(/C=N/NC(=[Se])Nc2ccccc2)cc(O)c1O")
5.31
>>> measured("Oc1ccc(/C=N/NC(=[Se])Nc2cccc3ccccc23)cc1O")
4.74
>>> measured("Oc1cc(O)c(/C=N/NC(=[Se])Nc2cccc3ccccc23)cc1O")
4.97

Challenge: What value of pEC50 has been recorded for this entry: O=Cc1cc(O)c(O)cc1O
Response given: 5.22

* * *

# System: SW1573
# ASSAY_OVERVIEW: Antiproliferative activity against human SW1573 cells after 48 hrs by sulforhodamine B assay
# Format: functional
# EXPERIMENTAL_PARAMETERS: SW1573, 48 h
MEASUREMENT_TYPE: log10(GI50) (log10 of the value in µM)
Plainly stated, the numbers are log10 of GI50 given in µM.

A selection of reference data follows.
>>> measured("Oc1ccc(/C=N/NC(=[Se])Nc2ccccc2)cc1O")
0.76
>>> measured("Oc1cc(/C=N/NC(=S)Nc2ccccc2)cc(O)c1O")
1.69
>>> measured("Oc1ccc(/C=N/NC(=[Se])Nc2cccc3ccccc23)cc1O")
0.51
>>> measured("Oc1cc(O)c(/C=N/NC(=S)Nc2ccccc2)cc1O")
1.48
>>> measured("Oc1ccc(/C=N/NC(=S)Nc2ccccc2)cc1O")
1.38

Challenge: GET /values?readout=log10(GI50)&system=SW1573&item= Oc1cc(/C=N/NC(=[Se])Nc2ccccc2)cc(O)c1O
Response given: 0.59

Challenge: Then O=Cc1cc(O)c(O)c(O)c1 ?
Response given: 1.58

Challenge: Lookup Oc1cc(/C=N/NC(=[Se])Nc2cccc3ccccc23)cc(O)c1O
Response given: 0.46

Challenge: Next up: Oc1ccc(/C=N/NC(=[Se])Nc2cccc3ccccc23)cc1
Response given: 0.36

Challenge: Also check Oc1ccc(/C=N/NC(=[Se])Nc2ccccc2)cc1
Response given: 1.28

Challenge: Can you check O=Cc1ccc(O)c(O)c1 next?
Response given: 1.73

Challenge: Another compound to check: Oc1cc(O)c(/C=N/NC(=[Se])Nc2cccc3ccccc23)cc1O
Response given: 0.70

Challenge: Field entry: Oc1ccc(/C=N/NC(=S)Nc2ccccc2)cc1
Response given: 1.54

Challenge: Another compound: O=c1[nH]cc(F)c(=O)[nH]1
Response given: 0.63

* * *

# ASSAY_OVERVIEW: Antioxidant activity assessed as H2O2 scavenging activity at 100 uM incubated for 20 mins by phenol red based assay
# Assay type: physicochemical
MEASUREMENT_TYPE: inhibition (INH) (%)
Use % as the unit, but write only the number.

Challenge: Requested read-out: inhibition (INH). Entry: Oc1ccc(/C=N/NC(=[Se])Nc2cccc3ccccc23)cc1O
Response given: 46.3

Challenge: Let us now turn to O=Cc1cc(O)c(O)c(O)c1
Response given: 79.1

Challenge: // repeat for NNC(=[Se])Nc1cccc2ccccc12 and report
Response given: 56.9
